The following compounds are shown together with reported pIC50 values.
MEASURED_ON: hERG channel (Homo sapiens (Human), UniProt Q12809)
Sequence (Q12809 whole entry): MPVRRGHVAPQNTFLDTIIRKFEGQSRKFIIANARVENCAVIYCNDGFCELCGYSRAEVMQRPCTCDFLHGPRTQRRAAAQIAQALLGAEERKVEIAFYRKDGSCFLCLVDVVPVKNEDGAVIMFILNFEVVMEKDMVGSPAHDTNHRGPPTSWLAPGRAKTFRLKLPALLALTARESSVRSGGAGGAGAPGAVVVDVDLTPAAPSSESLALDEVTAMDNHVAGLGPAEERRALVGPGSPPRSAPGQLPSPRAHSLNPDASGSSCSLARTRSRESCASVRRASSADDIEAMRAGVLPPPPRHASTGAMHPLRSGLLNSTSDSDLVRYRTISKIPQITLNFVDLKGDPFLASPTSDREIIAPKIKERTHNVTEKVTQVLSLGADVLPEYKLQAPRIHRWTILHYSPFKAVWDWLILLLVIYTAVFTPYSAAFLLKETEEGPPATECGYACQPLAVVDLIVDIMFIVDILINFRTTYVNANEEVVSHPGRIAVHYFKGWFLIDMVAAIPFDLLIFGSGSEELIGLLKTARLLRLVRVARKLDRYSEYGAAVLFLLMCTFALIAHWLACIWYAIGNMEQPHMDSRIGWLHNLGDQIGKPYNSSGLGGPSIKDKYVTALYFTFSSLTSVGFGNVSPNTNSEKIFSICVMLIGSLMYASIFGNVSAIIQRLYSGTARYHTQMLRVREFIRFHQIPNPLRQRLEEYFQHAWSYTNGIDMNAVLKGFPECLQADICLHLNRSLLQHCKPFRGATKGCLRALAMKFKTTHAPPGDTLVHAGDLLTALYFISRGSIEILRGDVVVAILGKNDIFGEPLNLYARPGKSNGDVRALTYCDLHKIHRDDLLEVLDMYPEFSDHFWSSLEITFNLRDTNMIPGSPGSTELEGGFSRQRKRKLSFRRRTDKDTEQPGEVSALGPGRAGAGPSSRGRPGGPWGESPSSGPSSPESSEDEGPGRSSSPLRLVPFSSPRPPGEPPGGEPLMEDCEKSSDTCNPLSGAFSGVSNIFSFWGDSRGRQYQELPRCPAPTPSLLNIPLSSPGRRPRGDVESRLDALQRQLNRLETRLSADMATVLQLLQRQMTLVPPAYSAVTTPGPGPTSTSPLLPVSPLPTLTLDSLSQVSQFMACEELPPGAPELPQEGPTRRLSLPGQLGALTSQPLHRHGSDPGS
MEASUREMENT_NOTES: Human ERG channel binding assay (fluorescence polarization)
ASSAY_CONDITIONS: Table 1; tracer displacement, 4 h at room temperature
pIC50: −log10 of the molar value. Where a name gives a salt, the structure may show the parent alone.
QUANTITY_MEASURED: pIC50

[
  {
    "COMPOUND": "CC(C)CNC(=O)[C@H]1CN(C2CCN(c3nnc(N)[nH]3)CC2)[C@@H](Cc2ccc(Cl)cc2)CO1 [Example 69, 2,2,2-trifluoroacetate]",
    "RECORDED_MEASUREMENT": "4.00 to 4.60"
  },
  {
    "COMPOUND": "CC(C)(F)[C@H]1CN(C2CCN(c3nnc(N)[nH]3)CC2)[C@@H](Cc2ccc(Cl)cc2)CO1 [Example 1, 2,2,2-trifluoroacetate]",
    "RECORDED_MEASUREMENT": "4.00 to 4.60"
  },
  {
    "COMPOUND": "Nc1nnc(N2CCC(N3C[C@H](CN4CC[C@H](O)C4)OC[C@@H]3Cc3ccc(Cl)cc3)CC2)[nH]1 [Example 30, 2,2,2-trifluoroacetate]",
    "RECORDED_MEASUREMENT": "< 4.00"
  },
  {
    "COMPOUND": "Cc1cc([C@H]2CN(C3CCN(c4nnc(N)[nH]4)CC3)[C@@H](Cc3ccc(Cl)cc3)CO2)nn1C [Example 11, 2,2,2-trifluoroacetate]",
    "RECORDED_MEASUREMENT": "< 4.00"
  },
  {
    "COMPOUND": "C[C@H]1CN(C2CCN(c3nnc(N)[nH]3)CC2)[C@@H](Cc2ccc(Br)cc2)CO1 [Example 75, 2,2,2-trifluoroacetate]",
    "RECORDED_MEASUREMENT": "5.00 to 6.00"
  },
  {
    "COMPOUND": "Nc1nnc(N2CCC(N3C[C@H](c4ccn[nH]4)OC[C@@H]3Cc3ccc(Cl)cc3)CC2)[nH]1 [Example 12, 2,2,2-trifluoroacetate]",
    "RECORDED_MEASUREMENT": "< 4.00"
  },
  {
    "COMPOUND": "Nc1nnc(N2CCC(N3C[C@H](Cn4cc(F)cn4)OC[C@@H]3Cc3ccc(Cl)cc3)CC2)[nH]1 [Example 36, 2,2,2-trifluoroacetate]",
    "RECORDED_MEASUREMENT": "4.60 to 5.00"
  },
  {
    "COMPOUND": "Nc1nnc(N2CCC(N3C[C@H](C(=O)N4CCCC4)OC[C@@H]3Cc3ccc(Cl)cc3)CC2)[nH]1 [Example 60, 2,2,2-trifluoroacetate]",
    "RECORDED_MEASUREMENT": "< 4.00"
  },
  {
    "COMPOUND": "Nc1nnc(N2CCC(N3C[C@H](C(=O)N4CCC(F)(F)CC4)OC[C@@H]3Cc3ccc(Cl)cc3)CC2)[nH]1 [Example 53, 2,2,2-trifluoroacetate]",
    "RECORDED_MEASUREMENT": "4.00 to 4.60"
  },
  {
    "COMPOUND": "Nc1nnc(N2CCC(N3C[C@H](COCC(F)(F)F)OC[C@@H]3Cc3ccc(Cl)cc3)CC2)[nH]1 [Example 39, 2,2,2-trifluoroacetate]",
    "RECORDED_MEASUREMENT": "5.00 to 6.00"
  },
  {
    "COMPOUND": "CS(=O)(=O)C[C@H]1CN(C2CCN(c3nnc(N)[nH]3)CC2)[C@@H](Cc2ccc(Cl)cc2)CO1 [Example 33, dihydrochloride]",
    "RECORDED_MEASUREMENT": "< 4.00"
  },
  {
    "COMPOUND": "Nc1nnc(N2CCC(N3C[C@H](C(=O)NCC(F)F)OC[C@@H]3Cc3ccc(Cl)cc3)CC2)[nH]1 [Example 25, 2,2,2-trifluoroacetate]",
    "RECORDED_MEASUREMENT": "< 4.00"
  },
  {
    "COMPOUND": "Nc1nnc(N2CCC(N3C[C@H](CN4CC(F)C4)OC[C@@H]3Cc3ccc(Cl)cc3)CC2)[nH]1 [Example 37, 2,2,2-trifluoroacetate]",
    "RECORDED_MEASUREMENT": "4.00 to 4.60"
  },
  {
    "COMPOUND": "Cn1nccc1[C@H]1CN(C2CCN(c3nnc(N)[nH]3)CC2)[C@@H](Cc2ccc(Cl)cc2)CO1 [Example 10, 2,2,2-trifluoroacetate]",
    "RECORDED_MEASUREMENT": "< 4.00"
  },
  {
    "COMPOUND": "Nc1nnc(N2CCC(N3C[C@H](CF)OC[C@@H]3Cc3ccc(Cl)cc3)CC2)[nH]1 [Example 3, 2,2,2-trifluoroacetate]",
    "RECORDED_MEASUREMENT": "< 4.00"
  },
  {
    "COMPOUND": "Nc1nnc(N2CCC(N3C[C@H](Cn4ccnc4)OC[C@@H]3Cc3ccc(Cl)cc3)CC2)[nH]1 [Example 47, 2,2,2-trifluoroacetate]",
    "RECORDED_MEASUREMENT": "4.60 to 5.00"
  },
  {
    "COMPOUND": "Nc1nnc(N2CCC(N3C[C@H](C(=O)N4CCOCC4)OC[C@@H]3Cc3ccc(Cl)cc3)CC2)[nH]1 [Example 63, 2,2,2-trifluoroacetate]",
    "RECORDED_MEASUREMENT": "< 4.00"
  },
  {
    "COMPOUND": "CS(=O)(=O)CCNC(=O)[C@H]1CN(C2CCN(c3nnc(N)[nH]3)CC2)[C@@H](Cc2ccc(Cl)cc2)CO1 [Example 45, 2,2,2-trifluoroacetate]",
    "RECORDED_MEASUREMENT": "< 4.00"
  },
  {
    "COMPOUND": "Nc1nnc(N2CCC(N3C[C@H](CF)OC[C@@H]3Cc3ccc(Br)cc3)CC2)[nH]1 [Example 76, 2,2,2-trifluoroacetate]",
    "RECORDED_MEASUREMENT": "< 4.00"
  },
  {
    "COMPOUND": "Nc1nnc(N2CCC(N3C[C@H](Cc4nn[nH]n4)OC[C@@H]3Cc3ccc(Cl)cc3)CC2)[nH]1 [Example 4, 2,2,2-trifluoroacetate]",
    "RECORDED_MEASUREMENT": "< 4.00"
  },
  {
    "COMPOUND": "Nc1nnc(N2CCC(N3C[C@H](Cn4cccn4)OC[C@@H]3Cc3ccc(Cl)cc3)CC2)[nH]1 [Example 13, 2,2,2-trifluoroacetate]",
    "RECORDED_MEASUREMENT": "< 4.00"
  },
  {
    "COMPOUND": "Nc1nnc(N2CCC(N3C[C@H](CN4CCCC4=O)OC[C@@H]3Cc3ccc(Cl)cc3)CC2)[nH]1 [Example 7, 2,2,2-trifluoroacetate]",
    "RECORDED_MEASUREMENT": "< 4.00"
  },
  {
    "COMPOUND": "Nc1nnc(N2CCC(N3C[C@H](CN4CC[C@@H](O)C4)OC[C@@H]3Cc3ccc(Cl)cc3)CC2)[nH]1 [Example 31, 2,2,2-trifluoroacetate]",
    "RECORDED_MEASUREMENT": "< 4.00"
  },
  {
    "COMPOUND": "N#CC[C@H]1CN(C2CCN(c3nnc(N)[nH]3)CC2)[C@@H](Cc2ccc(Cl)cc2)CO1 [Example 6, 2,2,2-trifluoroacetate]",
    "RECORDED_MEASUREMENT": "< 4.00"
  }
]

Values were extracted from patent US11638707B2.
